# Assayed System: HLA-B*07:02;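 also: lysates heated 10 min at 37–73 °C, complexes pulled down with pan-HLA I antibody, peptide signal by DIA-MS relative to 37 °C, Tm where half the complex is unfolded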
# Protocol Description: thermal melting temperature (Tm) of peptide-HLA complex; higher = more thermostable pHLA complex
# Run Conditions: C1R-B*07:02
In all, about 1,400 sequences were measured (“thermal melting temperature (Tm) of peptide-HLA complex”: median about 60, lowest 2% from about 45 on). The full list was thinned out, with the lowest values kept by preference.
Measured thermal melting temperature, listed per entry.
Form entry: value (°C) — number only.

RPIESPGGSVL    45.3
GPRSAQVAQSL    40.4
QPVAGRPSL    55.8
LPRSINTDTL    58.5
RPDYRNITF    61.7

Pending sequence:
State, in one line, measured thermal melting temperature of "VPRAILVDL"
62.4
